- Assay Overview: yeast display, Sf9 membrane polyspecificity reagent, FACS + sequencing; frameworks hold sequencing errors
Quantity: polyreactivity (PSR sort gate)

As a guide, the following entries are already answered.
Item Sequence	polyreactivity (PSR sort gate)
QVQLVESGGGLVQAGGSLRLSCAASGSILKYYAMGWYRQAPGKERELLAAISWSGGRTYYADSVKGRFTISRDNAKNTVYLQMNSLKPEDTAVYYCAAENYGSGSWHGPEYDYWGQGTQVTVSS	low polyreactivity
QVQLQDSGGGLVQAGGSLRLSCAASGYIFGSGSMGWFRQAPGKERELVATINNGSSTYYADSVKGRFTISRDNAKNTVYLQMNSLKPEDTAVYYCGVFLYRLTFFYYWGQGNQVTVSS	high polyreactivity
QVQLVESGGGLVQAGGSLRLSCAASGIIFPGYTMGWSRQAPGPEREVVAAISSGGRTNYADSVKGRFTISRDNAKNTVYLQMNSLKPEDTAVYYCAATRVASLGSPMYYCGQGTQVTVSS	high polyreactivity
QVQLVESGGGLVQAGGSLRLSCAASGRIFRWNVTGWYRQAPGKETELDASITSGSSTNYADSVKGRFTISRDNAKYTVFLQMNSLKPEDTAVYYSAAYGVQTYRRYSYPRGFDYWGQGTQVTVSS	high polyreactivity
QVQLVESGGGLVQAGGSLRLSCAASGLTFAYYAMGWYRQAPGKERELVAAISYSGGSTYYADSVKGRFTISRDNANKTVYLQMNSLKPEDTAVYYCNRDRNSGFYRRYGYWGQGTQVTVSS	high polyreactivity

-- ask What measured polyreactivity (PSR sort gate) goes with QVQLVESGGGLDHARGSLRLICPASGRTFAPYAMGWYRQAPGKERELVARITWSGTDTYYADSVKGRFTISRDNAKNTVYLQMNCLKPDDTAVYYCAADARYSRRYYYWGQGTQVTVSS ?
-- reply low polyreactivity

-- ask Proceed to QVQLVESGGGLVQAGGSLRLSCAASGSTFPWYAMVWYRQAPGKERELVAAIRWRGGSTYYADSVKGRFTISRDNAKNTVYLQMNSLKPEDTAVYYCAADPTYLRTLRFGSYDYWGQGTQVTVSS
-- reply high polyreactivity

-- ask Proceed to QVQLVESGGGLVQAGGSLRLSCAASGFTFYYYAMGWYRQSPGKERELVAAISWNGGRTYYADSVKGRFTISRDTAKNNVYLQMNSLKPEDTAVYYCDTGYPIDLGREFDYWGQGIQVTVSS
-- reply high polyreactivity

-- ask Proceed to QVQLVESGGGLVQAGGSLRLSCAASGSIFDYYTMGWYRQAPGKERELVASITRDGTSTYYADSVKGRFTISRDNAKNTVYLQMNSLKPEDTAVYYCAAERYGFTYSFYYWGQGTQVTVSS
-- reply low polyreactivity

-- ask Proceed to QVQLVESGGGLVQAGGSLLLSCAASGRIFAYYAMGWYRQAPGKERELVAGISQRGSRTYYADSVKGRFTISRDNAKNTVYLQMNSLKPEDTAVYYCAARDRRSVTMDYWGQGTQVTVSS
-- reply high polyreactivity

-- ask Proceed to QVQLVESGGGLVQAGGSLRLSCAASGRTSKRYAMGWYRQAPGKERELVASIRGGDGSTYYADSVKGRFTISRDNAKNTVYLQMNSLKPEDTAVYYCARASSYGYYYWGQGTQVTVSS
-- reply high polyreactivity

-- ask Proceed to QVQLVESRGGLVQAGGRLRLSCAASGLIFYKYAMGWYRPAHGKERQLVAAITSGGGSTYYADSVKGRFTISRDNAKNTVYLQKNSLKPEDSAVYYCAATRPATYAAYDYWGHGTQVTVSS
-- reply high polyreactivity

-- ask Proceed to QVQLVESGGGLVQAGGSLRLSCAASGFIFKANAMGWYRQAPGKERELVASITFGGDSTYYADSVKGRFTISRDNAKNTVYLQMNSLKPEDTAVYYCNTRRRSYRTYYYWGQGTQVTVLS
-- reply low polyreactivity

-- ask Proceed to QVQLVESGGGLVQEGGSLRLSCAASGRTFGYYAMGWYRQAPGKERELVAAITRNGGRTYYADSVKGRFTISRDNAKNTVYLQMNSLKPEDTAVYYCAKDQYKPEAFYYWGQGTQVTVSS
-- reply high polyreactivity
